Source listed as ChEMBL document CHEMBL3817834.

System: Mycobacterium tuberculosis
EXPERIMENTAL_PROTOCOL: Antimycobacterial activity against streptomycin resistant Mycobacterium tuberculosis isolate 35820 by turbidometric method
Assay type: functional
For each of the compounds below, state its MIC80.
One number for each entry, in µM.

[
  {
    "COMPOUND": "CO[C@H]1/C=C/O[C@@]2(C)Oc3c(C)c(O)c4c(O)c(c(/C=N/N5CCN(C)CC5)c(O)c4c3C2=O)NC(=O)/C(C)=C\\C=C\\[C@H](C)[C@H](O)[C@@H](C)[C@@H](O)[C@@H](C)[C@H](OC(C)=O)[C@@H]1C",
    "UNITS_SYMBOL": "µM",
    "MIC80": 0.04
  },
  {
    "COMPOUND": "COc1cc2nc(N3CCC(c4ccccc4Cl)C3)cc(Nc3cnc(OCCN(C)C)c(F)c3)c2cc1OC (stereo not given)",
    "UNITS_SYMBOL": "µM",
    "MIC80": 12.5
  },
  {
    "COMPOUND": "CC[C@@H](CO)NCCN[C@@H](CC)CO",
    "UNITS_SYMBOL": "µM",
    "MIC80": 9.8
  }
]

Please state, for each entry, its recorded MIC80.
1. CN(C)CCOc1ncc(Nc2cc(-c3ccccc3)nc3cc(-c4ccc(F)cc4)nn23)cc1F
2. CC1COc2c(N3CCN(C)CC3)c(F)cc3c(=O)c(C(=O)O)cn1c23 (stereo not given)
3. CN(C)CCOc1ncc(Nc2cc(N3CCC(c4ccccc4Cl)C3)nc3cc(F)c(F)cc23)cc1F (stereo not given)
4. CN(C)CCOc1ncc(Nc2cc(-c3ccccc3)nc3cc(-c4ccc(F)cc4)[nH]c23)cc1F
5. NNC(=O)c1ccncc1

# output
25
0.7
25
25
0.2
